Recorded values, source patent US20210179666A1.

molecular target: mouse melanocortin 1 receptor (mouse, UniProt Q01727 1-315); assay: cell-based or functional assay
Sequence (Q01727 whole entry): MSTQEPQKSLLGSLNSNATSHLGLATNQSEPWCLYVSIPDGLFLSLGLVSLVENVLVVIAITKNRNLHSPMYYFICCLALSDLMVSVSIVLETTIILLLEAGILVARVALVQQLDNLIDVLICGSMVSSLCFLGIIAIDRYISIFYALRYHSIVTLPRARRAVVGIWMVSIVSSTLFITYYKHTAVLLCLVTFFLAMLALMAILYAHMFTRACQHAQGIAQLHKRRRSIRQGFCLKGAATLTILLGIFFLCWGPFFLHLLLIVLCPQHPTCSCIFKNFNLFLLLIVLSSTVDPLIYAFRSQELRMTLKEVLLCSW
Square brackets hold non-standard residues; d marks the D form. Dap = NC[C@H](N)C(=O)O
The entries below come with measured percent maximal stimulatory response at 100 µM (cAMP) values attached.
Readout type: percent maximal stimulatory response at 100 µM (cAMP) (%)

> print(dat)
                                     binder  unit.tag  value.measured
1  cyclo(PRYF[Dap]AF[dP]) (Phe112Tyr SNP in the Dap scaffold; also called c[Pro-Arg-Tyr-Phe-Dap-Ala-Phe-DPro]) [ZMK 2-112]         %              48
2  cyclo(PRFFNVF[dP]) (Ala115Val SNP in the Asn scaffold; also called c[Pro-Arg-Phe-Phe-Asn-Val-Phe-DPro]) [ZMK 2-82]         %              23
3  cyclo(PRFF[Dap]VF[dP]) (Ala115Val SNP in the Dap scaffold; also called c[Pro-Arg-Phe-Phe-Dap-Val-Phe-DPro]) [ZMK 2-85]         %              79
4  cyclo(PHFFNAF[dP]) (Arg111His SNP in the Asn scaffold; also called c[Pro-His-Phe-Phe-Asn-Ala-Phe-DPro]) [ZMK 2-96]         %              23
5  cyclo(PHFF[Dap]AF[dP]) (Arg111His SNP in the Dap scaffold; also called c[Pro-His-Phe-Phe-Dap-Ala-Phe-DPro]) [ZMK 2-99]         %              56
